assay: in vivo; conditions: male, Sprague-Dawley, rat, iv, 1 mg/kg, Cmax

{"COMPOUND SMILES": "CCCCC[C@H](O)CC[C@@H]1[C@H]2Cc3cccc(OCC(=O)O)c3C[C@H]2C[C@H]1O", "Cmax / ng/mL": 2120}

###

assay: in vivo; conditions: male, Sprague-Dawley, rat, iv, 1 mg/kg, Average (n = 3) plasma concentrations
MEASUREMENT NAME: concentration at 480 min (ng/mL)

{"COMPOUND SMILES": "CCCCC[C@H](O)CC[C@@H]1[C@H]2Cc3cccc(OCC(=O)O)c3C[C@H]2C[C@H]1O", "TEST VALUE": 0.3}
